assay: protein stability index of a GFP-peptide fusion (yeast GPS) (PSI 1-4); higher = more stable; sorted into four equal gates, so the index is relative within each strain; settings: ubr1∆
readout: protein stability index
No unit in the answer, only the number.

Past entries and their recorded results:
sequence_chain	reported_result
IAKSQDKKSCSVDDVLS [DPB4]	3.16
NDIAGQPQALQKSGRPV [RPO21]	2.96
TLGNQMLSAHNIIESIA [YJR042W/NUP85]	2.79
STDELVGSPLTVSILQE [POP8]	2.26
PQTTQMFQSQSQLQPQP [YDL088C/ASM4]	2.46

Entry under test: QTFNFDSFENYFNQLKP [RPN12] . Its protein stability index was 3

Entry under test: QQENSKSGKRKPNIILD [RPC31] . Its protein stability index was 2.79

Entry under test: TRDDLLTILMRSIMKNR [RRI2] . Its protein stability index was 2.75

Entry under test: LVGSWKKDRATGDADEP [RPO21] . Its protein stability index was 3.46

Entry under test: TFVVEQLIKQSIKNNVA [SNU114] . Its protein stability index was 2.38

Entry under test: VGASVVVVKNWGAETDE [RPS12] . Its protein stability index was 2.97

* * *

test: protein stability index of a GFP-peptide fusion (yeast GPS) (PSI 1-4); higher = more stable; sorted into four equal gates, so the index is relative within each strain; conditions: ubr1∆
readout: protein stability index
No unit in the answer, only the number.

Past entries and their recorded results:
sequence_chain	protein stability index
LQSISSLTISLYASDYA [RPN7]	1.95
MSGSFWTSTQRHHWQYT [SSN8]	2.23
QIPQQLYQSLTPQQLQM [SNF5]	2.77

Entry under test: IPIGHVHVIHFQHADNS [AAR2] . Its protein stability index was 2.65

Entry under test: LEILIVTKDGVRKEFYE [PRE7] . Its protein stability index was 2.92

Entry under test: IPYSRNAPAWFKLSSES [RPS13] . Its protein stability index was 2.44

Entry under test: STLEPTLRKELEQIQVQ [YIL149C/MLP2] . Its protein stability index was 2.3

* * *

This listing pairs sequences with measured protein stability index.
assay: protein stability index of a GFP-peptide fusion (yeast GPS) (PSI 1-4); higher = more stable; sorted into four equal gates, so the index is relative within each strain; conditions: doa10∆
No unit in the answer, only the number.

Past entries and their recorded results:
sequence_chain	protein stability index
TYEAIDVPGRELKYELI [RPB2]	3.01
IPGEEVEETEVPTVPPS [MED4]	2.66
GPKKNVFYAPNVKNYST [RPC34]	2.69
TRNSLGNVIQFIYGEDG [RPO21]	3.01
GQSEASLLNLLNISPFT [RPP0]	2.59

Entry under test: FHNAVFNSFRRFKSQFL [QCR8] . Its protein stability index was 2.31

Entry under test: ILTGTPLQNNLPELWAL [SNF2] . Its protein stability index was 2.24

Entry under test: QTLGLESFTEELSNELS [MED1] . Its protein stability index was 3.29

* * *

assay: protein stability index of a GFP-peptide fusion (yeast GPS) (PSI 1-4); higher = more stable; sorted into four equal gates, so the index is relative within each strain; conditions: ubr1∆
readout: protein stability index
No unit in the answer, only the number.

Past entries and their recorded results:
sequence_chain	protein stability index
SVLQLIVSEDHIILDTI [MED1]	2.08
TKNDAGSKQILKTEAAN [BRR2]	3.04
KPWFATVNGQARDLATM [FAS1]	3.05

Entry under test: PTDSSKILQKRSISKEL [SIR3] . Its protein stability index was 2.85

Entry under test: DWEKYKAPLEDDDKKPD [RPT1] . Its protein stability index was 3.31
